# Test system: LNCaP (human PSMA expressing prostate cancer cell line) tumour
# Parameters: species or system mice
# MEASUREMENT CONTEXT: mouse, in vivo
Please provide measured Tumour SUVmax 18 h pi for the entries that follow.
Output: the number by itself.

Quick one: Tumour SUVmax 18 h pi of CC(=O)N(O)CCCCCNC(=O)CCC(=O)N(O)CCCCCNC(=O)CCC(=O)N(O)CCCCCNc1c(NCCNC(=O)CN(CCN(CC(=O)O)CC(=O)Nc2ccc(C(=O)NCCCCC(NC(=O)NC(CCC(=O)O)C(=O)O)C(=O)O)cc2)CC(=O)O)c(=O)c1=O (stereo not shown) [^89Zr(2), metal not drawn] ?
0.3

Quick one: Tumour SUVmax 18 h pi of CC(=O)N(O)CCCCCNC(=O)CCC(=O)N(O)CCCCCNC(=O)CCC(=O)N(O)CCCCCNc1c(NCCN(CCNC(=O)CCCC(=O)NCCCCC(NC(=O)NC(CCC(=O)O)C(=O)O)C(=O)O)CCNC(=O)CCCC(=O)NCCCCC(NC(=O)NC(CCC(=O)O)C(=O)O)C(=O)O)c(=O)c1=O (single isomer, unassigned) [^89Zr(3), metal not drawn] ?
0.6

Quick one: Tumour SUVmax 18 h pi of CC(=O)N(O)CCCCCNC(=O)CCC(=O)N(O)CCCCCNC(=O)CCC(=O)N(O)CCCCCNc1c(NCc2ccc(C(=O)NCCCCC(NC(=O)NC(CCC(=O)O)C(=O)O)C(=O)O)cc2)c(=O)c1=O (single isomer, unassigned) [^89Zr(1), metal not drawn] ?
0.4

Quick one: Tumour SUVmax 18 h pi of CC(=O)N(O)CCCCCNC(=O)CCC(=O)N(O)CCCCCNC(=O)CCC(=O)N(O)CCCCCNc1c(NCCN(CCNC(=O)CCCC(=O)NCc2ccc(C(=O)NCCCCC(NC(=O)NC(CCC(=O)O)C(=O)O)C(=O)O)cc2)CCNC(=O)CCCC(=O)NCc2ccc(C(=O)NCCCCC(NC(=O)NC(CCC(=O)O)C(=O)O)C(=O)O)cc2)c(=O)c1=O (single isomer, unassigned) [^89Zr(4), metal not drawn] ?
1.5

###

# PROTOCOL TEXT: in vivo
# Design: species or system mice
# MEASUREMENT CONTEXT: male, mouse, iv, total radioactivity, Tumour Uptake % ID/g 18 h pi
# Protocol: PET-CT imaging and Biodistribution. Male Balb/c nude mice (age 8.5 weeks) or Male NSG mice (age 12 weeks) were inoculated subcutaneously on the right flank with 6×10^6 LNCap cells in PBS:Matrigel (1:1). Mice were weighed and tumours measured twice weekly using electronic callipers. Tumour volume (mm^3) was calculated as length×width×height×π/6. […] PET Images were analysed using VivoQuant (Invicro) and Tumour SUVmax or Tumour SUVmax/background average (TBR) determined. […]
Please provide measured tissue uptake at 18 h for the entries that follow.
Use %ID/g as the unit, but write only the number.

Quick one: tissue uptake at 18 h of CC(=O)N(O)CCCCCNC(=O)CCC(=O)N(O)CCCCCNC(=O)CCC(=O)N(O)CCCCCNc1c(NCc2ccc(C(=O)NCCCCC(NC(=O)NC(CCC(=O)O)C(=O)O)C(=O)O)cc2)c(=O)c1=O (single isomer, unassigned) [^89Zr(1), metal not drawn] ?
1.7

Quick one: tissue uptake at 18 h of CC(=O)N(O)CCCCCNC(=O)CCC(=O)N(O)CCCCCNC(=O)CCC(=O)N(O)CCCCCNc1c(NCCN(CCNC(=O)CCCC(=O)NCc2ccc(C(=O)NCCCCC(NC(=O)NC(CCC(=O)O)C(=O)O)C(=O)O)cc2)CCNC(=O)CCCC(=O)NCc2ccc(C(=O)NCCCCC(NC(=O)NC(CCC(=O)O)C(=O)O)C(=O)O)cc2)c(=O)c1=O (single isomer, unassigned) [^89Zr(4), metal not drawn] ?
3.7
